measurementNotes: ATP-based viability of Huh7 replicon cells – cell-based, CellTiter-Glo luminescence, basal, 48 h, cytotoxicity control for HCV replication inhibitor project, primary screen (AID 1143);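 further: Huh7 hepatoma cells carrying a hepatitis C replication reporter with no stimulus; test concentration not given here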
experimentalConditions: higher = more signal, called active from +8 up or from −8 down
Answer each item with its documented z-score.
Numbers only.

Some compounds with recorded z-score:
COCCCNC(=O)[C@@]1(Cc2ccccc2CN=[N+]=[N-])N=C(c2ccc(OCCCO)cc2)O[C@H]1c1ccccc1N=[N+]=[N-]; -4.47
COc1ccccc1CN1C(=O)c2ccccc2[C@@H](C(=O)NCC(C)C)[C@@H]1c1ccc(CO)cc1; -0.922
O=C1O[C@H](c2ccccc2)[C@H](c2ccccc2)N2[C@H]1[C@@H](C(=O)N1CCCCCCC1)[C@]1(C(=O)Nc3ccccc31)[C@H]2c1ccc(O)cc1; -1.21
COCCOC(=O)N1C(=O)[C@@]2(c3ccccc31)[C@H](c1ccccc1OCCO)N1[C@H](c3ccccc3)[C@H](c3ccccc3)OC(=O)[C@H]1[C@@H]2C(=O)N1CCc2cc(OC)c(OC)cc2C1; -3.53
COCCOC(=O)N1C(=O)[C@@]2(c3cc(C#CCC(C(=O)OC)C(=O)OC)ccc31)[C@H](c1ccc(OCCO)cc1)N1[C@H](c3ccccc3)[C@H](c3ccccc3)OC(=O)[C@H]1[C@@H]2C(N)=O; -1.29
C#CCNS(=O)(=O)N(C)C; 0.251

Look at each compound and report its z-score.
1. C=CCC(OC(C)=O)[C@@H]1[C@@H](N(Cc2ccc(-c3ccccc3)cc2)C(=O)c2cccc3ccccc23)c2cc(OCCCO)ccc2N1C(=O)c1ccc2ccccc2n1 (some centres undefined)
2. COCCCNC(=O)[C@@]1(Cc2ccccc2I)c2ccccc2C(=O)N(Cc2ccccc2Cl)[C@H]1c1ccc(CO)cc1
3. O=C1NC(=O)C2C1C=CC(C(O)c1ccc(-c3ccccc3)s1)N2Nc1ccccn1 (centres undefined)

A)
[-1.48, -4.15, 0.429]
